Target: human cloned CHRM4 receptor (M4_CHO cells) (Homo sapiens)
Construct: expressed in transfected cells; host or cells: CHO-K1
Sequence (P08173 whole entry): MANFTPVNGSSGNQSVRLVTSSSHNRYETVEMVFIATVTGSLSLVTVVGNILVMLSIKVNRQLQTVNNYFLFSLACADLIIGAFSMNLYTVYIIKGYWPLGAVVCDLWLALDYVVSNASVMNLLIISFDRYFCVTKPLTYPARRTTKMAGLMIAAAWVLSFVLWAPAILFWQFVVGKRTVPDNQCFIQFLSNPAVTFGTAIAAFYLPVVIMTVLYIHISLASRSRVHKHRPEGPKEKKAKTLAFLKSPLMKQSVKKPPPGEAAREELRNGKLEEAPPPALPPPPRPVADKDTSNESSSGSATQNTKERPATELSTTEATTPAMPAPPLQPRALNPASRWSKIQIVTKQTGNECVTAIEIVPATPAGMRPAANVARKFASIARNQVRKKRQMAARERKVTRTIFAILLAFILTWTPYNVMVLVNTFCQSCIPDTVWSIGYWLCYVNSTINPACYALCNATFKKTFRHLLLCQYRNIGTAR
Experiment: CHRM4 Ca++ Flux Assay (agonist mode, FDSS 7000EX)
Format: cell-based
Details: Percent Activity
property-label: M4 FDSS PA (%)

Reference set (3 entries):
1) O=C(N1CC2(CC[C@@H](N3CCC(c4cc(F)ccc4OC4CC5(COC5)C4)CC3)C2)C1)C1(F)CC1 (single isomer, unassigned) [Example 11B] :: 51
2) O=C(N1CC2(CC[C@@H](N3CCC(c4ccccc4OCc4ncccn4)CC3)C2)C1)C1(F)CC1 (single isomer, unassigned) :: 50
3) Fc1ccc(C2CCOCC2)c(C2CCN([C@@H]3CCC4(C3)CN(c3cncnc3)C4)CC2)c1 (single isomer, unassigned) [Example 10D] :: 50

1: Cc1ncc(COc2ccccc2C2CCN([C@@H]3CCC4(C3)CN(C(=O)C3(F)CC3)C4)CC2)o1 (single isomer, unassigned)
2: Fc1ccc(OC2CC3(COC3)C2)c(C2CCN([C@@H]3CCC4(C3)CN(c3cncnc3)C4)CC2)c1 (single isomer, unassigned) [Example 10F]
Kindly identify the item with the lower M4 FDSS PA figure among these two: 1 and 2 Label of pick, please. 1
(1: 23%, 2: 71%)

These entries and their values trace back to patent US12122761B2.
